Data provenance: patent US6844366B2

Reported melting point is given for each of the following compounds.

The cases that follow already have their melting point on record.
SMI | melting point
COC(=O)c1ccc(C(=O)NC[C@H](C(=O)NO)N(Cc2ccc3c(c2)OCO3)S(=O)(=O)c2c(C)cc(OC)cc2C)cc1 | 119 to 124 °C
COc1cc(C)c(S(=O)(=O)N(Cc2ccc3[nH]ccc3c2)[C@@H](C(=O)NO)C(C)C)cc1C | 117 to 121 °C
COc1cc(C)c(S(=O)(=O)N(Cc2ccc3c(c2)OCO3)[C@H](CNS(C)(=O)=O)C(=O)NO)c(C)c1 | 98 to 102 °C
COc1cc(C)c(S(=O)(=O)N(Cc2ccc3[nH]cc(C(C)=O)c3c2)[C@@H](C(=O)NO)C(C)C)c(C)c1C | 163 to 171 °C
COC(=O)c1ccc(CN([C@@H](C(=O)NO)C(C)C)S(=O)(=O)c2ccc(OC)cc2)cc1 | 164 to 165 °C
COc1cc(C)c(S(=O)(=O)N(Cc2ccc3c(c2)OCO3)[C@@H](C(=O)NO)[C@H](C)O)c(C)c1C | 95 to 105 °C

Task: Given COc1cc(C)c(S(=O)(=O)N(Cc2ccc3c(c2)OCO3)[C@H](CNS(=O)(=O)c2ccccc2)C(=O)NO)c(C)c1 , state its recorded melting point.
Output: 103 to 107 °C
